B1: PhoQ; a variant is named by its letters at X, in order, P23837 (parent)
chain: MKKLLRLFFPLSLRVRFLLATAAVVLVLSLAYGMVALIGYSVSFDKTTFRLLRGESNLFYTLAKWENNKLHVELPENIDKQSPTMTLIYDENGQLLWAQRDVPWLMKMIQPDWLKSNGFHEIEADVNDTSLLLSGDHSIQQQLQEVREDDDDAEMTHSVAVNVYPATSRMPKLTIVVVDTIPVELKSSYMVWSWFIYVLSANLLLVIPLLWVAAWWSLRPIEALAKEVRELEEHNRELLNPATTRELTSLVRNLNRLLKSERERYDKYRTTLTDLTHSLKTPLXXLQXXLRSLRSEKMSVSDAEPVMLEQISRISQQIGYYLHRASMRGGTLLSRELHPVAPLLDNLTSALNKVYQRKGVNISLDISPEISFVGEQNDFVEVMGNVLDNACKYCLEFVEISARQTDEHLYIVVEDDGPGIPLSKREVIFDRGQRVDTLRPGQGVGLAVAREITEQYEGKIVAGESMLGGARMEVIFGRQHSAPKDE

variants of: B1; test: enrichment ratio after two sorts for PhoP signalling (ratio (wild type AVST 3.29)); higher = more functional; settings: with PhoP (E. coli)
The full ranking holds about 140,000 sequences; the median of “enrichment ratio after two sorts for PhoP signalling” is about 0, and the highest 2% start at about 11. Many of the other results were omitted from the sample, so the highest values are more common in it than they were.

| Mutation list | enrichment ratio |
| --- | --- |
| IPKF | ≤ 0.25 |
| KITV | ≤ 0.25 |
| SVWR | ≤ 0.25 |
| SVTV | 11.3 |
| KCTM | ≤ 0.25 |
| SVAH | 12.7 |
| NVCC | ≤ 0.25 |
| SVDV | ≤ 0.25 |
| VAVA | ≤ 0.25 |
| MCFN | 4.25 |
| SAMF | 14.8 |
| FCDV | ≤ 0.25 |
| KFAH | ≤ 0.25 |
| TYID | ≤ 0.25 |
| GLRF | ≤ 0.25 |
| RASH | ≤ 0.25 |
| LSFF | 0.737 |
| PQSG | ≤ 0.25 |
| KFTV | ≤ 0.25 |
| QIMN | ≤ 0.25 |
| ANLF | 10.7 |
| EKTC | ≤ 0.25 |
| VSWM | 2.15 |
| MHYL | ≤ 0.25 |
| IVDK | ≤ 0.25 |
| SMTV | 11.4 |
| LMRK | ≤ 0.25 |
| KPLN | ≤ 0.25 |
| SQPA | ≤ 0.25 |
| MLTL | 8.8 |
| CHTM | ≤ 0.25 |
| RCKT | ≤ 0.25 |
| NAMF | ≤ 0.25 |
| SMDV | ≤ 0.25 |
| WHKS | ≤ 0.25 |
| KKRG | ≤ 0.25 |
| YVMY | ≤ 0.25 |
| MQIG | ≤ 0.25 |
| VFTM | ≤ 0.25 |
| VCTM | 23 |
| WLSV | ≤ 0.25 |
| NSTM | ≤ 0.25 |
| PMVC | ≤ 0.25 |
| NSKR | ≤ 0.25 |
| VSTM | 14.3 |
| DYLR | ≤ 0.25 |
